method: Clearance in Han Wistar rat at 4 mg/kg, iv by LCMS/MS method
Assay type: ADME, organism-based
applied conditions: in vivo

{"compound smiles": "CCn1c([C@@H](C)NS(=O)(=O)c2ccc(C#N)nc2)nc2cnc(C3CC3)cc21", "clearance, mL/min/kg": 10}

====

method: Intrinsic clearance in rat hepatocytes assessed per 10^6 cells at 1 uM after 0.5 to 120 mins by LCMS/MS method
Type: ADME, cell-based, Hepatocyte
applied conditions: read-out: CLH
measurement name: hepatocyte CLint at 1 µM (µL/min/1e6 cells)

{"compound smiles": "CCn1c([C@@H](C)NS(=O)(=O)c2ccc(C#N)nc2)nc2cnc(C(F)(F)F)cc21", "measurement name": "hepatocyte CLint at 1 µM", "unit spec": "µL/min/1e6 cells", "measured result": 2.1}
{"compound smiles": "CCn1c([C@@H](C)NS(=O)(=O)c2ccc(C#N)nc2)nc2cnc(C3CC3)cc21", "measurement name": "hepatocyte CLint at 1 µM", "unit spec": "µL/min/1e6 cells", "measured result": 3.9}

Each recorded value in this set is attributed to ChEMBL document CHEMBL3603779.
